Just for reference, PubChem BioAssay is where these values come from.

Target: E3 ubiquitin-protein ligase XIAP (Homo sapiens)
Assay: XIAP binders, primary screen, biophysical, small-molecule microarray, fluorescence 635 nm (AID 1181)
Conditions: small-molecule microarray binding, higher = more signal
# cutoff 0.04 applies to composite z-score; >= gives True, < gives False

{"molecule": "COc1ccc([Si](C)(C)[C@@H]2[C@@H](CC(=O)N3CCC[C@H]3CO)O[C@]3(C(=O)N(c4ccccc4)c4ccccc43)[C@H]2C)cc1", "group": "True"}
{"molecule": "CC(C)N1C(=O)[C@@]2(Cc3ccccc31)c1ccccc1C(=O)N(Cc1ccccc1Cl)[C@H]2c1ccc(CO)cc1", "group": "True"}
{"molecule": "CCCCCN1CC=CC23O[C@@H]4C=CCCOC(=O)C4[C@H]2C(=O)N(CCCCCO)[C@@H]3C1=O (stereo partly drawn)", "group": "True"}
{"molecule": "C#C[C@H](O[Si](C#Cc1ccc(Oc2ccccc2)cc1)(C(C)C)C(C)C)c1ccccc1", "group": "False"}
{"molecule": "CC(C)C[C@@H]1NC(=O)[C@@H]2C[C@H](C(=O)O)[C@H](c3cccc(OCCO)c3)N2C1=O", "group": "False"}
{"molecule": "C=CCNC(=O)[C@@H]1[C@H]2C(=O)O[C@H](c3ccccc3)[C@H](c3ccccc3)N2[C@H](c2ccc(OCCO)cc2)[C@@]12C(=O)Nc1ccc(C#CCC(C(=O)OC)C(=O)OC)cc12", "group": "True"}
{"molecule": "O=C1NC(=O)C2C1C=CC(C(O)c1cccs1)N2Nc1ccc(Cl)cc1Cl (stereo not drawn)", "group": "False"}

Now consider a different molecule.
Task: State whether the measured composite z-score reaches 0.04, counting equality as reaching it, for CCCCC(CC)C(O)C1C=CC2C(=O)N(Cc3ccccc3)C(=O)C2N1n1cnnc1 (stereo not drawn)
Result: False
